- TEST_SYSTEM: UniProt:Q16644
- Sequence (Q16644 whole entry, looked up): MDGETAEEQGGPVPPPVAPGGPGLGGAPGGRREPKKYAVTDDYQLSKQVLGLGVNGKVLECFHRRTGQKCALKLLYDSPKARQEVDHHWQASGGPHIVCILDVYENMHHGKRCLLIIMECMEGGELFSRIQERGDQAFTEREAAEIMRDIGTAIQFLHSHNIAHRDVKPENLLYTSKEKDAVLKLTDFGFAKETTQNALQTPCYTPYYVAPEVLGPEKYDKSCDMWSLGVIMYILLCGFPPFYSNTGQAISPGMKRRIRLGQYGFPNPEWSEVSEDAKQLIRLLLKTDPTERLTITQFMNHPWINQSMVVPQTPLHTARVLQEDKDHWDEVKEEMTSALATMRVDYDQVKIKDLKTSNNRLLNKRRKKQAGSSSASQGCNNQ
- ASSAY_PROCEDURE: Caliper, Mobility shift assay off-chip
- CONDITIONS: compound 0.1 µM
RECORDED_METRIC: inhibition (%)
Lab book: enter the figure in %, no units written.

Inquiry: Query for UniProt:Q16644: what inhibition does the record show for Cn1cc(-c2cnc3ccc4ccc(CS(=O)(=O)CCc5ccccn5)cc4c(=O)c3c2)cn1 ?
Reply text: 1.8

Inquiry: // repeat for CN(c1ccc2ccc3ncc(-c4cnn(C)c4)cc3c(=O)c2c1)S(=O)(=O)NCc1ccccn1 and report
Reply text: -0.1

Inquiry: Next: Cn1cc(-c2cnc3ccc4ccc(CS(=O)(=O)NCC5CCCCN5)cc4c(=O)c3c2)cn1 (configuration not stated)
Reply text: -2.7

Inquiry: Further, for Cn1cc(-c2cnc3ccc4ccc(CS(N)(=O)=O)cc4c(=O)c3c2)cn1 ?
Reply text: 5.4

Inquiry: Now the compound O=C(CCc1ccc2ccc3ncc(C4CCNCC4)cc3c(=O)c2c1)NCc1ccccn1
Reply text: -0.3

Inquiry: Input O=c1c2cc(CS(=O)(=O)NCc3ccccn3)ccc2ccc2ncc(C3CCNCC3)cc12
Reply text: -0.3

Inquiry: Cool, now Cn1cc(-c2cnc3ccc4ccc(CS(=O)(=O)NC5CCCCC5)cc4c(=O)c3c2)cn1
Reply text: 4.1

====

- TEST_SYSTEM: AKT3 (human) (UniProt Q9Y243)
- Sequence (Q9Y243 whole entry, looked up): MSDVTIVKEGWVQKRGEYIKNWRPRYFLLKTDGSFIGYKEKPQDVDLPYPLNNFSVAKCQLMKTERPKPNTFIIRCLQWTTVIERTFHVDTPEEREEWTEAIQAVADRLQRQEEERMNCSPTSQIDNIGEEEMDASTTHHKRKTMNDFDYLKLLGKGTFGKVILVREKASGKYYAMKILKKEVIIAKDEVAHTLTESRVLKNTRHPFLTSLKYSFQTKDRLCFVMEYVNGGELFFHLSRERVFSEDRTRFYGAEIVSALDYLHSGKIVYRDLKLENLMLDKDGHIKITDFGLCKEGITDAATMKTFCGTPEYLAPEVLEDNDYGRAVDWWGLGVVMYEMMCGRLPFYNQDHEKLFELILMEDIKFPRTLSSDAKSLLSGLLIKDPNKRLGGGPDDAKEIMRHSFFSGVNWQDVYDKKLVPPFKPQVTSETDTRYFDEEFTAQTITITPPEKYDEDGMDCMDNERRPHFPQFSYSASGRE
- ASSAY_PROCEDURE: Caliper, Mobility shift assay off-chip
- CONDITIONS: compound 1.0 µM
RECORDED_METRIC: inhibition (%)
Write down the numeric answer in % and omit the unit.

Inquiry: Give the measured inhibition of O=C(CCc1ccc2ccc3ncc(C4CCNCC4)cc3c(=O)c2c1)NCc1ccccn1 .
Reply text: 2.1

Inquiry: Try this molecule next: Cn1cc(-c2cnc3ccc4ccc(CS(N)(=O)=O)cc4c(=O)c3c2)cn1
Reply text: 3.13

Inquiry: Another: Cn1cc(-c2cnc3ccc4ccc(CS(=O)(=O)CCc5ccccn5)cc4c(=O)c3c2)cn1
Reply text: -5.8

Inquiry: Next: CN(c1ccc2ccc3ncc(-c4cnn(C)c4)cc3c(=O)c2c1)S(=O)(=O)NCc1ccccn1
Reply text: 5.2

====

- TEST_SYSTEM: PRKCZ (human)
- ASSAY_PROCEDURE: Caliper, Mobility shift assay off-chip
- CONDITIONS: compound 0.1 µM
Record form. Attribute: inhibition. Fill in for each entry.
The reply should contain only the number, in %.

Inquiry: Can you look up the measured inhibition of Cn1cc(-c2cnc3ccc4ccc(CS(=O)(=O)NCC5CCCCN5)cc4c(=O)c3c2)cn1 (configuration not stated) for me?
Reply text: -8

Inquiry: Then this compound: CN(c1ccc2ccc3ncc(-c4cnn(C)c4)cc3c(=O)c2c1)S(=O)(=O)NCc1ccccn1
Reply text: 1.7

Inquiry: Okay, and Cn1cc(-c2cnc3ccc4ccc(CS(=O)(=O)CCc5ccccn5)cc4c(=O)c3c2)cn1 ?
Reply text: 3.2

Inquiry: What do you have for Cn1cc(-c2cnc3ccc4ccc(CS(=O)(=O)NC5CCCCC5)cc4c(=O)c3c2)cn1 ?
Reply text: 3.6

Inquiry: Now try Cn1cc(-c2cnc3ccc4ccc(CS(N)(=O)=O)cc4c(=O)c3c2)cn1 .
Reply text: -6.7

Inquiry: Also need O=c1c2cc(CS(=O)(=O)NCc3ccccn3)ccc2ccc2ncc(C3CCNCC3)cc12 , thanks.
Reply text: 4.6

Inquiry: Also need O=C(CCc1ccc2ccc3ncc(C4CCNCC4)cc3c(=O)c2c1)NCc1ccccn1 , thanks.
Reply text: 0.7
